experiment: Cytotoxicity against human L02 cells incubated for 72 hrs by MTT dye reduction assay; type: toxicity, cell-based
Labelling field: enter rule met if recorded IC50 at 72 h is less than 9 µg/mL. Enter rule not met if it equals or exceeds that cut-off.

Input: Strictly below 9 µg/mL: is that where IC50 at 72 h of `Cc1cc(OC(=O)CC[P+](c2ccccc2)(c2ccccc2)c2ccccc2)c(C(C)C)cc1-c1ccccc1.[Br-]` sits?
Output: rule met

====

Quick list: MIC per entry.
system: Staphylococcus aureus; assay: Antibacterial activity against Staphylococcus aureus ATCC 43300 assessed as inhibition of bacterial growth measured after 18 hrs by microplate reader; type: functional; conditions: read-out: MIC100

compound	measurement name	recorded value
Cc1ccccc1-c1cc(C(C)C)c(O)cc1C	MIC	8 µg/mL

The recorded MIC for entry `Cc1ccc(-c2cc(C(C)C)c(O)cc2C)cc1` equals 8 µg/mL

The recorded MIC for entry `Cc1cc(O)c(C(C)C)cc1-c1ccc(C#N)cc1` equals 16 µg/mL

The recorded MIC for entry `Cc1cccc(-c2cc(C(C)C)c(O)cc2C)c1` equals 16 µg/mL

The recorded MIC for entry `Cc1cc(O)c(C(C)C)cc1-c1cccc(O)c1` equals 32 µg/mL

====

Quick list: MIC per entry.
test system: Klebsiella pneumoniae; experiment: Antibacterial activity against Klebsiella pneumonia 3026 assessed as inhibition of bacterial growth measured after 18 hrs by microplate reader; type: functional; conditions: read-out: MIC100

Before answering, review these 2 worked examples.
compound structure	MIC
Cc1cc(OC(=O)CCCCCCCCCC[P+](c2ccccc2)(c2ccccc2)c2ccccc2)c(C(C)C)cc1-c1ccccc1.[Br-]	> 64 µg/mL
Cc1cc(OC(=O)CC[P+](c2ccccc2)(c2ccccc2)c2ccccc2)c(C(C)C)cc1-c1ccccc1.[Br-]	> 64 µg/mL

--- query ---
The recorded MIC for entry `Cc1cc(OC(=O)CCCCCCCCC[P+](c2ccccc2)(c2ccccc2)c2ccccc2)c(C(C)C)cc1-c1ccccc1.[Br-]` equals > 64 µg/mL

====

assay: Cytotoxicity against human L02 cells incubated for 72 hrs by MTT dye reduction assay; format: toxicity, cell-based
Labelling field: enter 1.0 if recorded IC50 at 72 h is less than 9 µg/mL. Enter 0.0 if it equals or exceeds that cut-off.

compound structure	qualitative label
Cc1cc(O)c(C(C)C)cc1-c1ccccc1	0.0
Cc1cc(OC(=O)CCCCC[P+](c2ccccc2)(c2ccccc2)c2ccccc2)c(C(C)C)cc1-c1ccccc1.[Br-]	0.0
Cc1cc(OC(=O)CCCCCCCC[P+](c2ccccc2)(c2ccccc2)c2ccccc2)c(C(C)C)cc1-c1ccccc1.[Br-]	0.0
Cc1cc(OC(=O)CCC[P+](c2ccccc2)(c2ccccc2)c2ccccc2)c(C(C)C)cc1-c1ccccc1.[Br-]	1.0
Cc1cc(OC(=O)CCCC[P+](c2ccccc2)(c2ccccc2)c2ccccc2)c(C(C)C)cc1-c1ccccc1.[Br-]	1.0

Input: Strictly below 9 µg/mL: is that where IC50 at 72 h of `Cc1cc(OC(=O)CCCCCCCCC[P+](c2ccccc2)(c2ccccc2)c2ccccc2)c(C(C)C)cc1-c1ccccc1.[Br-]` sits?
Output: 1.0

Input: Strictly below 9 µg/mL: is that where IC50 at 72 h of `Cc1cc(OC(=O)CCCCCC[P+](c2ccccc2)(c2ccccc2)c2ccccc2)c(C(C)C)cc1-c1ccccc1.[Br-]` sits?
Output: 0.0

Input: Strictly below 9 µg/mL: is that where IC50 at 72 h of `Cc1cc(OC(=O)CCCCCCCCCC[P+](c2ccccc2)(c2ccccc2)c2ccccc2)c(C(C)C)cc1-c1ccccc1.[Br-]` sits?
Output: 1.0

Input: Strictly below 9 µg/mL: is that where IC50 at 72 h of `Cc1cc(OC(=O)CCCCCCC[P+](c2ccccc2)(c2ccccc2)c2ccccc2)c(C(C)C)cc1-c1ccccc1.[Br-]` sits?
Output: 0.0
